- Test system: COR-L23
- assay method text: relative viability (nuclei count vs DMSO), 5 days (fraction); higher = more cells survive
- cond: first compound 0.04 µM
endpoint label: relative viability

1) Clc1ccc(Nc2nnc(Cc3ccncc3)c3ccccc23)cc1 [Vatalanib] + O=C(c1cc(Cc2n[nH]c(=O)c3ccccc23)ccc1F)N1CCN(C(=O)C2CC2)CC1 [Olaparib] (partner 8 µM): 0.363
2) C[C@@H]1CN(CC(=O)Nc2ccc3c(c2)Cc2cccc(-c4cc(=O)cc(N5CCOCC5)o4)c2S3)C[C@H](C)O1 + CC(=O)c1c(C)c2cnc(Nc3ccc(N4CCNCC4)cn3)nc2n(C2CCCC2)c1=O [Palbociclib] (partner 0.5 µM): 0.294
3) C[C@@H]1CN(CC(=O)Nc2ccc3c(c2)Cc2cccc(-c4cc(=O)cc(N5CCOCC5)o4)c2S3)C[C@H](C)O1 + CS(=O)(=O)N1CCN(Cc2cc3nc(-c4cccc5[nH]ncc45)nc(N4CCOCC4)c3s2)CC1 [Pictilisib] (partner 1 µM): 0.854
4) C[C@@H]1CN(CC(=O)Nc2ccc3c(c2)Cc2cccc(-c4cc(=O)cc(N5CCOCC5)o4)c2S3)C[C@H](C)O1 + COc1cc2c(Oc3ccc(NC(=O)C4(C(=O)Nc5ccc(F)cc5)CC4)cc3F)ccnc2cc1OCCCN1CCOCC1 [Foretinib] (partner 0.25 µM): 0.991
5) C[C@@H]1CN(CC(=O)Nc2ccc3c(c2)Cc2cccc(-c4cc(=O)cc(N5CCOCC5)o4)c2S3)C[C@H](C)O1 + CS(=O)(=O)CCNCc1ccc(-c2ccc3ncnc(Nc4ccc(OCc5cccc(F)c5)c(Cl)c4)c3c2)o1 [Lapatinib] (partner 2 µM): 0.893
6) COc1cc(N2CCC(C(N)=O)CC2)ccc1Nc1nc(N)c(Cl)c(Nc2ccccc2S(=O)(=O)C(C)C)n1 [HG-5-88-01] + CC1(C)CCC(c2ccc(Cl)cc2)=C(CN2CCN(c3ccc(C(=O)NS(=O)(=O)c4ccc(N[C@H](CCN5CCOCC5)CSc5ccccc5)c(S(=O)(=O)C(F)(F)F)c4)cc3)CC2)C1 [Navitoclax] (partner 0.5 µM): 0.936
7) C[C@@H]1CN(CC(=O)Nc2ccc3c(c2)Cc2cccc(-c4cc(=O)cc(N5CCOCC5)o4)c2S3)C[C@H](C)O1 + CC(=O)Nc1cccc(-n2c(=O)n(C3CC3)c(=O)c3c(Nc4ccc(I)cc4F)n(C)c(=O)c(C)c32)c1 [Trametinib] (partner 0.02 µM): 0.596
8) COc1cc(N2CCC(C(N)=O)CC2)ccc1Nc1nc(N)c(Cl)c(Nc2ccccc2S(=O)(=O)C(C)C)n1 [HG-5-88-01] + C[C@]1(O)C[C@@H](c2nc(-c3ccc4ccc(-c5ccccc5)nc4c3)c3c(N)nccn32)C1 [Linsitinib] (partner 1 µM): 0.885

----------
- Test system: HOP-62
- assay method text: relative viability (nuclei count vs DMSO), 5 days (fraction); higher = more cells survive
- cond: first compound 0.04 µM
Catalogue of relative viability readings, one per entry.
endpoint label: relative viability

1) COc1cc(N2CCC(C(N)=O)CC2)ccc1Nc1nc(N)c(Cl)c(Nc2ccccc2S(=O)(=O)C(C)C)n1 [HG-5-88-01] + NC(=O)Nc1cc(-c2cccc(F)c2)sc1C(=O)N[C@H]1CCCNC1 [AZD7762] (partner 0.2 µM): 0.463
2) COc1cc(N2CCC(C(N)=O)CC2)ccc1Nc1nc(N)c(Cl)c(Nc2ccccc2S(=O)(=O)C(C)C)n1 [HG-5-88-01] + CC(C)C[C@H](NC(=O)[C@H](Cc1ccccc1)NC(=O)c1cnccn1)B(O)O [Bortezomib] (partner 0.002 µM): 0.684

----------
- Test system: ABC-1
- assay method text: relative viability (nuclei count vs DMSO), 5 days (fraction); higher = more cells survive
- cond: first compound 8 µM
endpoint label: relative viability

1) CCCCCCCCCCCC1=C(O)C(=O)C=C(O)C1=O [Embelin] + Cc1cc(Nc2cc(N3CCN(C)CC3)nc(Sc3ccc(NC(=O)C4CC4)cc3)n2)n[nH]1 [Tozasertib] (partner 0.1 µM): 0.148
2) CCCCCCCCCCCC1=C(O)C(=O)C=C(O)C1=O [Embelin] + CC(C)C[C@H](NC(=O)[C@H](Cc1ccccc1)NC(=O)c1cnccn1)B(O)O [Bortezomib] (partner 0.002 µM): 0.257
3) CCCCCCCCCCCC1=C(O)C(=O)C=C(O)C1=O [Embelin] + CC(=O)c1c(C)c2cnc(Nc3ccc(N4CCNCC4)cn3)nc2n(C2CCCC2)c1=O [Palbociclib] (partner 0.5 µM): 0.72
4) CCCCCCCCCCCC1=C(O)C(=O)C=C(O)C1=O [Embelin] + CS(=O)(=O)N1CCN(Cc2cc3nc(-c4cccc5[nH]ncc45)nc(N4CCOCC4)c3s2)CC1 [Pictilisib] (partner 1 µM): 0.646
5) CCCCCCCCCCCC1=C(O)C(=O)C=C(O)C1=O [Embelin] + C[C@@H](Oc1cc(-c2cnn(C3CCNCC3)c2)cnc1N)c1c(Cl)ccc(F)c1Cl [Crizotinib] (partner 1 µM): 1.21

----------
Catalogue of relative viability readings, one per entry.
- Test system: NCI-H1944
- assay method text: relative viability (nuclei count vs DMSO), 5 days (fraction); higher = more cells survive
- cond: first compound 0.3162 µM
endpoint label: relative viability

1. CC(C)Oc1cc(Nc2nc(N[C@@H](C)c3ccc(F)cn3)ncc2Cl)n[nH]1 [AZ23] + CC(=O)c1c(C)c2cnc(Nc3ccc(N4CCNCC4)cn3)nc2n(C2CCCC2)c1=O [Palbociclib] (partner 0.5 µM): 0.278
2. CC(C)Oc1cc(Nc2nc(N[C@@H](C)c3ccc(F)cn3)ncc2Cl)n[nH]1 [AZ23] + Nc1ncn([C@H]2C[C@H](O)[C@@H](CO)O2)c(=O)n1 [Decitabine] (partner 2 µM): 0.433
3. CC(C)Oc1cc(Nc2nc(N[C@@H](C)c3ccc(F)cn3)ncc2Cl)n[nH]1 [AZ23] + CS(=O)(=O)CCNCc1ccc(-c2ccc3ncnc(Nc4ccc(OCc5cccc(F)c5)c(Cl)c4)c3c2)o1 [Lapatinib] (partner 2 µM): 0.903
4. CC(C)Oc1cc(Nc2nc(N[C@@H](C)c3ccc(F)cn3)ncc2Cl)n[nH]1 [AZ23] + Cc1nc(Nc2ncc(C(=O)Nc3c(C)cccc3Cl)s2)cc(N2CCN(CCO)CC2)n1 [Dasatinib] (partner 0.075 µM): 0.208
5. CC(C)Oc1cc(Nc2nc(N[C@@H](C)c3ccc(F)cn3)ncc2Cl)n[nH]1 [AZ23] + Cc1cc(Nc2cc(N3CCN(C)CC3)nc(Sc3ccc(NC(=O)C4CC4)cc3)n2)n[nH]1 [Tozasertib] (partner 0.1 µM): 0.243

----------
- System: COR-L23
- assay method text: relative viability (nuclei count vs DMSO), 5 days (fraction); higher = more cells survive
- cond: first compound 1.265 µM
endpoint label: relative viability

1) COc1cc(N2CCC(C(N)=O)CC2)ccc1Nc1nc(N)c(Cl)c(Nc2ccccc2S(=O)(=O)C(C)C)n1 [HG-5-88-01] + CCNC(=O)c1noc(-c2cc(C(C)C)c(O)cc2O)c1-c1ccc(CN2CCOCC2)cc1 [Luminespib] (partner 0.01 µM): 0.614
2) COc1cc(N2CCC(C(N)=O)CC2)ccc1Nc1nc(N)c(Cl)c(Nc2ccccc2S(=O)(=O)C(C)C)n1 [HG-5-88-01] + CC(=O)Nc1cccc(-n2c(=O)n(C3CC3)c(=O)c3c(Nc4ccc(I)cc4F)n(C)c(=O)c(C)c32)c1 [Trametinib] (partner 0.02 µM): 0.488
3) Clc1ccc(Nc2nnc(Cc3ccncc3)c3ccccc23)cc1 [Vatalanib] + C[C@]1(O)C[C@@H](c2nc(-c3ccc4ccc(-c5ccccc5)nc4c3)c3c(N)nccn32)C1 [Linsitinib] (partner 1 µM): 0.811
4) COc1cc(N2CCC(C(N)=O)CC2)ccc1Nc1nc(N)c(Cl)c(Nc2ccccc2S(=O)(=O)C(C)C)n1 [HG-5-88-01] + N=C(N)NC(=N)NCCc1ccccc1 [Phenformin] (partner 250 µM): 0.377

----------
- Test system: NCI-H2085
- assay method text: relative viability (nuclei count vs DMSO), 5 days (fraction); higher = more cells survive
- cond: first compound 0.1265 µM
endpoint label: relative viability

1) C[C@@H]1CN(CC(=O)Nc2ccc3c(c2)Cc2cccc(-c4cc(=O)cc(N5CCOCC5)o4)c2S3)C[C@H](C)O1 + NC(=O)Nc1cc(-c2cccc(F)c2)sc1C(=O)N[C@H]1CCCNC1 [AZD7762] (partner 0.2 µM): 1.06
2) Clc1ccc(Nc2nnc(Cc3ccncc3)c3ccccc23)cc1 [Vatalanib] + C[C@@H](Oc1cc(-c2cnn(C3CCNCC3)c2)cnc1N)c1c(Cl)ccc(F)c1Cl [Crizotinib] (partner 1 µM): 0.779
3) COc1cc(N2CCC(C(N)=O)CC2)ccc1Nc1nc(N)c(Cl)c(Nc2ccccc2S(=O)(=O)C(C)C)n1 [HG-5-88-01] + Cc1cc(Nc2cc(N3CCN(C)CC3)nc(Sc3ccc(NC(=O)C4CC4)cc3)n2)n[nH]1 [Tozasertib] (partner 0.1 µM): 0.784
4) C[C@@H]1CN(CC(=O)Nc2ccc3c(c2)Cc2cccc(-c4cc(=O)cc(N5CCOCC5)o4)c2S3)C[C@H](C)O1 + C[C@]1(O)C[C@@H](c2nc(-c3ccc4ccc(-c5ccccc5)nc4c3)c3c(N)nccn32)C1 [Linsitinib] (partner 1 µM): 0.803

Entry source: the supplement of paper PMC10307832
